Cited source: ChEMBL document CHEMBL1126951

Molecular target: Purine nucleoside phosphorylase (Bos taurus, UniProt P55859)
Sequence (P55859 whole entry): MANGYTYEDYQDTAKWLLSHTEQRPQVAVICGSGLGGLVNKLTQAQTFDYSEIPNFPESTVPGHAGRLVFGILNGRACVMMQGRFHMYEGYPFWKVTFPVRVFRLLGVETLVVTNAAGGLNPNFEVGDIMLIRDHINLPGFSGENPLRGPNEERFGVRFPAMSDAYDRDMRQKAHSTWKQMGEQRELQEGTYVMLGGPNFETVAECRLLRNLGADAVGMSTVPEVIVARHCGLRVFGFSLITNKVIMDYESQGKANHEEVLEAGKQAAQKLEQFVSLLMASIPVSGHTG
Assay: biochemical
Description: In vitro inhibition of purine nucleoside phosphorylase from calf spleen in 1 mM phosphate
What pIC50 was measured for each of the following?
Give bare numbers, as −log10 of the molar value.

molecule	target system	endpoint value
Nc1nc2c(CC3CCCNC3)c[nH]c2c(=O)[nH]1 (stereo not given)	Purine nucleoside phosphorylase (Bos taurus, UniProt P55859)	6.00
Nc1nc(O)c2[nH]c(N)c(CC3CCCCC3)c2n1	Purine nucleoside phosphorylase (Bos taurus, UniProt P55859)	5.18
Nc1nc(O)c2[nH]cc(C3=CCCCC3)c2n1	Purine nucleoside phosphorylase (Bos taurus, UniProt P55859)	5.72
Nc1nc2c(CC3CCCS3)c[nH]c2c(=O)[nH]1 (stereo not given)	Purine nucleoside phosphorylase (Bos taurus, UniProt P55859)	7.96

Okay, next one:
Task: Record request: pIC50 value, item Nc1nc2c(CC3CCCO3)c[nH]c2c(=O)[nH]1 (stereo not given)
Output: 7.15

----------
Target: Purine nucleoside phosphorylase (Bos taurus, UniProt P55859)
Experiment: Inhibition of purine nucleoside phosphorylase from calf spleen in 50 mM phosphate
measure name: pIC50
One number for each entry, as −log10 of the molar value.

compound	pIC50
Nc1nc2c(CC3CCCCCC3)c[nH]c2c(=O)[nH]1	6.07
Nc1nc(O)c2[nH]cc(C3=CCCCC3)c2n1	4.72
Nc1nc2c(CC3CCCNC3)c[nH]c2c(=O)[nH]1 (centres undefined)	6.00
Nc1nc(O)c2[nH]c(N)c(CC3CCCCC3)c2n1	3.82
CC1CCCC(Cc2c[nH]c3c(=O)[nH]c(N)nc23)C1 (centres undefined)	6.09
Nc1nc2c(CC3CCCO3)c[nH]c2c(=O)[nH]1 (centres undefined)	6.52
Nc1nc2c(CC3CCCS3)c[nH]c2c(=O)[nH]1 (centres undefined)	6.66
Nc1nc(O)c2[nH]cc(CC3CCCSS3)c2n1 (centres undefined)	6.70

Okay, next one:
Task: Record request: pIC50 value, item Nc1nc(O)c2[nH]cc(C3CCCCC3)c2n1
Output: 3.82
